biological target: Leukotriene B4 receptor 1 (Cavia porcellus); assay: Binding affinity towards LTB4 receptor guinea pig spleen cells using [3H]LTB4 as radioligand
pKi: −log10 of the molar value.
quantity: pKi

In [3]: df
Out[3]:
                                   compound  number
0  CCCc1c(OCCCOc2cc(O)c(-c3ccc(F)cc3)cc2CC)cccc1Sc1ccccc1C(=O)O    7.38

(1) CCCc1c(OCCCOc2cc(O)c(-c3ccc(F)cc3)cc2CC)cccc1C(=O)c1ccccc1C(=O)O
(2) CCCc1c(OCCCOc2cc(O)c(-c3ccc(F)cc3)cc2CC)cccc1[S+]([O-])c1ccccc1C(=O)O (stereo not drawn)
**Query** Determine, for 1 and 2 , which has the greater value of pKi. Choose, then provide that item's label.
**Result** 2
(2: 8.23, 1: 7.48)
